// provenance: the supplement of paper PMC10567573

B1: NR2F2 (parent)
chain: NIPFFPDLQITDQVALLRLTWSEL

- Variants of: B1
- Assay Summary: protein stability index of a GFP-peptide fusion (GPS, HEK-293T) (PSI 1-6); higher = more stable;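 further: lentivirally expressed fusions sorted by FACS into six bins by GFP to DsRed ratio, PSI derived from sequencing read proportions per bin multiplied by bin number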
- Conditions Used: c terminus: a fixed tail appended
Reported Property: protein stability index
Lab note: jot down the number only; don't add units.

**Q:** Endpoint output: protein stability index of L17F . Value?
**A:** 1.46

**Q:** Now the same for P6D
**A:** 2.23

**Q:** Now the same for L8K
**A:** 2.7

**Q:** Now the same for W21D
**A:** 3.41

**Q:** Now the same for D7C
**A:** 2.67

**Q:** Now the same for I2N
**A:** 2.02
